Target: T1, EsCas13d, nuclease-dead (Eubacterium siraeum, UniProt B0MS50, R295A;H300A;R849A;H854A)
T1 sequence: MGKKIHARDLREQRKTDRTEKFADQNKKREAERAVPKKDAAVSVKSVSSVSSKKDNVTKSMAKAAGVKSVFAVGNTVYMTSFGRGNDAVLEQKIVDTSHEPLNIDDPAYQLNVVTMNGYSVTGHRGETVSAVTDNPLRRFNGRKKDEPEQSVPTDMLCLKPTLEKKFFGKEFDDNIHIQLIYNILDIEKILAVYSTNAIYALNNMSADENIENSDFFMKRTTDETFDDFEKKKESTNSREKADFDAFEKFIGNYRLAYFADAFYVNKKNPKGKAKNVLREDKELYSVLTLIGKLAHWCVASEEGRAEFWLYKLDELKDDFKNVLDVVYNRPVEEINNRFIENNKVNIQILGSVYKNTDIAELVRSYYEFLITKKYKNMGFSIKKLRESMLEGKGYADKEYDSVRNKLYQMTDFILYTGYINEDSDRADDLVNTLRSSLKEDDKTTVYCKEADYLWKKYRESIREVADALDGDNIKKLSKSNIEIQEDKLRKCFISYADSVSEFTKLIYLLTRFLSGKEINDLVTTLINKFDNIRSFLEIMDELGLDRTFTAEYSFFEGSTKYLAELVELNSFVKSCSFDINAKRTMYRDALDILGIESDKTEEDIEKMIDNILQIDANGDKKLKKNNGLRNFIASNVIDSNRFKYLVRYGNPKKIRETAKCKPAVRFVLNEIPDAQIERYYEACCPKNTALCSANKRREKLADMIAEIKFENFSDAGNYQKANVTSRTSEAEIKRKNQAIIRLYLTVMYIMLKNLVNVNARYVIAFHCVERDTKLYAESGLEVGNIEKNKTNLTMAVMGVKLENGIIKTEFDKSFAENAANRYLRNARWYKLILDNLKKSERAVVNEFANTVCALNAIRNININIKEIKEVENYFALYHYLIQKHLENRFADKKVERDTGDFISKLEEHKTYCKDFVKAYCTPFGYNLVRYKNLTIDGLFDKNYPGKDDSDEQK
Experiment: crRNA (strand 1, pre-loaded); Mg2+; 40 mM Tris-HCl pH 7.5, 150 mM NaCl, 6 mM MgCl2, 1 mM DTT, 0.1% Tween-20, 0.2 mg/ml BSA; 25 C; 10 min per concentration, then washed
Details: tags: His6-TwinStrep-SUMO cleaved; N-terminal SNAP kept (SNAP-Surface 488); label: 3' end held by stalled T7 RNA polymerase
# Yes = Kd below 20 nM (exclusive); No = Kd at/above 20 nM

{"columns": ["binder", "answer-label"],
 "data": [
  ["target 3 insU 3' of 6,insC 3' of 3 (mixed) RNA 1: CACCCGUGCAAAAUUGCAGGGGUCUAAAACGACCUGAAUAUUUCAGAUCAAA RNA 2: GGGAAUGGAUCCACAUCUACGAAUUCGUUUUUGAUCUGAAAUAUUCUAGGCUCUGCAGAUCGGAAGAGCACACGU", "No"],
  ["target 2 MT 5'PFS GUU 3'PFS UCC (mixed) RNA 1: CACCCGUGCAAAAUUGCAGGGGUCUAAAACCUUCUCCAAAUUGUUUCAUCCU RNA 2: GGGAAUGGAUCCACAUCUACGAAUUCGUUAGGAUGAAACAAUUUGGAGAAGUCCAGAUCGGAAGAGCACACGU", "No"],
  ["target 1 insA 3' of 6,insC 3' of 5 (mixed) RNA 1: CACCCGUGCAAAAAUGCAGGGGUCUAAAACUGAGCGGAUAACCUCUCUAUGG RNA 2: GGGAAUGGAUCCACAUCUACGAAUUCGUACCAUAGAGAGGUUAUCCAGCCUCACCGAGAUCGGAAGAGCACACGU", "No"],
  ["target 1 U11C,A14G (mixed) RNA 1: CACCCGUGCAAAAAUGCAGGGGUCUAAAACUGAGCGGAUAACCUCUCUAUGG RNA 2: GGGAAUGGAUCCACAUCUACGAAUUCGUACCAUAGAGGGGCUAUCCGCUCACCGAGAUCGGAAGAGCACACGU", "Yes"],
  ["target 1 insU 3' of 22,insC 3' of 1 (mixed) RNA 1: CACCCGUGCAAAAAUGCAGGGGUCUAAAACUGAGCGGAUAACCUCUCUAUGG RNA 2: GGGAAUGGAUCCACAUCUACGAAUUCGUACUCAUAGAGAGGUUAUCCGCUCACCCGAGAUCGGAAGAGCACACGU", "No"],
  ["target 2 MT 5'PFS UAC 3'PFS UAG (mixed) RNA 1: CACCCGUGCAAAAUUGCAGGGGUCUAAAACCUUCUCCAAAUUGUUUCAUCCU RNA 2: GGGAAUGGAUCCACAUCUACGAAUUCUACAGGAUGAAACAAUUUGGAGAAGUAGAGAUCGGAAGAGCACACGU", "Yes"],
  ["target 1 insG 3' of 7,insA 3' of 5 (mixed) RNA 1: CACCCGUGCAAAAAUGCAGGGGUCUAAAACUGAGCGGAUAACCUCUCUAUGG RNA 2: GGGAAUGGAUCCACAUCUACGAAUUCGUACCAUAGAGAGGUUAUCGCGACUCACCGAGAUCGGAAGAGCACACGU", "Yes"],
  ["target 1 U8A,G12C (mixed) RNA 1: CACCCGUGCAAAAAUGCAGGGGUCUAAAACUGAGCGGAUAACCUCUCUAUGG RNA 2: GGGAAUGGAUCCACAUCUACGAAUUCGUACCAUAGAGAGCUUAACCGCUCACCGAGAUCGGAAGAGCACACGU", "Yes"],
  ["target 2 MT 5'PFS GCG 3'PFS CCG (mixed) RNA 1: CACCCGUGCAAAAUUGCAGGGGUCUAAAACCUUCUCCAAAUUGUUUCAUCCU RNA 2: GGGAAUGGAUCCACAUCUACGAAUUCGCGAGGAUGAAACAAUUUGGAGAAGCCGAGAUCGGAAGAGCACACGU", "Yes"]
]}

Ref: paper PMC10786891
